- tested-on: Peroxisome proliferator-activated receptor alpha (Homo sapiens, UniProt Q07869)
- Sequence (Q07869 whole entry): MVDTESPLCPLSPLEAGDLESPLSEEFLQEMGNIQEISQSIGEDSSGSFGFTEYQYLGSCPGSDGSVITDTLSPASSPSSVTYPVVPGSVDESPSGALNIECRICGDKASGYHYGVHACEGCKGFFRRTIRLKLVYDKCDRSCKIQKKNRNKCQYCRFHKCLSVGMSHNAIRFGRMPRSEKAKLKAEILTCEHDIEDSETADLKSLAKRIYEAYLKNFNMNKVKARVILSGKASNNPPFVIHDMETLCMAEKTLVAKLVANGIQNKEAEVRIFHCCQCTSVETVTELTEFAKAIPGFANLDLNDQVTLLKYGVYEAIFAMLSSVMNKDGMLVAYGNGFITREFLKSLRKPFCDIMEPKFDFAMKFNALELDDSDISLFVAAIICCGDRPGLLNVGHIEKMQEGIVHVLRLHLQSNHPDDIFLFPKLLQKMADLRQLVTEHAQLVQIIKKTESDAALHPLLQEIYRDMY
- assay-procedure: Activity at human PPAR alpha in Huh7 cells by transactivation assay
pEC50: −log10 of the molar value.
endpoint: pEC50

CCCc1c(OCCCn2ccc3cc(OC(C)(C)C(=O)O)ccc32)ccc2cc(C(=O)c3ccccc3)ccc12 6.91
CCCc1c(OCCCn2ccc3c(OCC(=O)O)cccc32)ccc2cc(C(=O)c3ccccc3)ccc12 6.69
CCCc1c(OCCCn2ccc3ccc(OCC(=O)O)cc32)ccc2cc(C(=O)c3ccccc3)ccc12 5.68
CCCc1c(OCCCn2ccc3c(OC(C)(C)C(=O)O)cccc32)ccc2cc(C(=O)c3ccccc3)ccc12 6.55

1. CCCc1c(OCCCn2ccc3ccc(OC(C)(C)C(=O)O)cc32)ccc2cc(C(=O)c3ccccc3)ccc12
2. CCCc1c(OCCCn2ccc3cc(OCC(=O)O)ccc32)ccc2cc(C(=O)c3ccccc3)ccc12
# query: argmin of pEC50 over 1 and 2 State your choice using its label.
1
(1: 5.96, 2: 7.49)
